assay: Apparent volume of distribution in Sprague-Dawley rat at 1 mg/kg, iv by LC-MS/MS; format: ADME, organism-based; details: in vivo, read-out: Vz
readout name: Vd (L/kg)
Lab book: enter the figure in L/kg, no units written.

## Input Which measured Vd value corresponds to `O=C(O)CNC(=O)c1ncc(-c2cn(CCCc3ccc(Cl)cc3)nn2)cc1O` ?
## Output 2.31

====

test: Half life in Sprague-Dawley rat at 1 mg/kg, iv by LC-MS/MS; assay type: ADME, organism-based; details: in vivo
readout name: half-life (min)
Please give a number only; it is taken to be in min.

## Input Requested read-out: half-life. Entry: `O=C(O)CNC(=O)c1ncc(-c2cn(CCCc3ccc(Cl)cc3)nn2)cc1O`
## Output 90.4

FYI, the data here is from ChEMBL document CHEMBL4118236.
